Taken from patent US7144862B2.

# Experiment Description: Circular dichroism, percent helicity
# Assay type: physicochemical
# Test Settings: 11 μM peptide in PBS
Quantity Measured: Percent Helicity PBS
A complete answer gives the number followed by the unit.

QUERY: Entry under review: Ac-DWLKAFYDKVFEKFKEFF-NH2 [Peptide 5F] . Reported Percent Helicity PBS?
RESULT: 55%

QUERY: Entry under review: Ac-DWFKAFYDKFFEKFKEFF-NH2 [Peptide 7F] . Reported Percent Helicity PBS?
RESULT: 58%

QUERY: Entry under review: Ac-DWLKAFYDKFFEKFKEFF-NH2 [Peptide 6F] . Reported Percent Helicity PBS?
RESULT: 67%

QUERY: Entry under review: Ac-DWLKAFYDKVAEKLKEAF-NH2 [Peptide 2F] . Reported Percent Helicity PBS?
RESULT: 55%

---

# Experiment Description: DSC, chain melting transition of DMPC
# Type: physicochemical
# Test Settings: DMPC/peptide 100:1 (mol/mol), 1.5 mM DMPC; chain melting transition temperature
Quantity Measured: TCM(° C.) (°C)
Answer format: numeric, °C implied, no suffix.

QUERY: Entry under review: Ac-DWLKAFYDKFFEKFKEFF-NH2 [Peptide 6F] . Reported TCM(° C.)?
RESULT: 23.1

QUERY: Entry under review: Ac-DWLKAFYDKVAEKLKEAF-NH2 [Peptide 2F] . Reported TCM(° C.)?
RESULT: 23.2

QUERY: Entry under review: Ac-DWLKAFYDKVFEKFKEFF-NH2 [Peptide 5F] . Reported TCM(° C.)?
RESULT: 23.2

QUERY: Entry under review: Ac-DWFKAFYDKFFEKFKEFF-NH2 [Peptide 7F] . Reported TCM(° C.)?
RESULT: 23.2

---

# Experiment Description: Solubility in PBS
# Format: physicochemical
# Test Settings: Solubility (mg/ml)
Quantity Measured: solubility

QUERY: Entry under review: CC(=O)N[C@@H](CC(=O)O)C(=O)N[C@@H](Cc1c[nH]c2ccccc12)C(=O)N[C@@H](Cc1ccccc1)C(=O)N[C@@H](CCCCN)C(=O)N[C@@H](C)C(=O)N[C@@H](Cc1ccccc1)C(=O)N[C@@H](Cc1ccc(O)cc1)C(=O)N[C@@H](CC(=O)O)C(=O)N[C@@H](CCCCN)C(=O)N[C@H](C(=O)N[C@@H](C)C(=O)N[C@@H](CCC(=O)O)C(=O)N[C@@H](CCCCN)C(=O)N[C@@H](Cc1ccccc1)C(=O)N[C@@H](CCCCN)C(=O)N[C@@H](CCC(=O)O)C(=O)N[C@@H](C)C(=O)N[C@@H](Cc1ccccc1)C(N)=O)C(C)C [Peptide 4F] . Reported solubility?
RESULT: 1250 to 1400 µg/mL

---

I'd be grateful if you could share measured Percent Helicity DMPC for these entries.
# Experiment Description: Circular dichroism, percent helicity
# Type: physicochemical
# Test Settings: 11 μM peptide, Peptide: DMPC 1:20 (mol/mol)
Answer format: numeric, % implied, no suffix.

QUERY: Entry under review: Ac-DWLKAFYDKFFEKFKEFF-NH2 [Peptide 6F] . Reported Percent Helicity DMPC?
RESULT: 50

QUERY: Entry under review: Ac-DWLKAFYDKVAEKLKEAF-NH2 [Peptide 2F] . Reported Percent Helicity DMPC?
RESULT: 72

QUERY: Entry under review: Ac-DWFKAFYDKFFEKFKEFF-NH2 [Peptide 7F] . Reported Percent Helicity DMPC?
RESULT: 68

QUERY: Entry under review: Ac-DWLKAFYDKVFEKFKEFF-NH2 [Peptide 5F] . Reported Percent Helicity DMPC?
RESULT: 76
